test system: HT29 colon; experiment: NCI tumour cell line growth inhibition, 48 h
The label depends only on TGI: 1 (yes) if it is at least 30 µM, 0 (no) if it is smaller.

Answered examples (5):
>  <Compound>
O=Cc1cc(O)ccc1Br

>  <Assay Target>
HT29 colon

>  <Class Name>
1 (yes)

$$$$
>  <Compound>
COc1ccc2c(c1)OCC1Cc3cccc(OC)c3OC21 (stereo not given)

>  <Assay Target>
HT29 colon

>  <Class Name>
1 (yes)

$$$$
>  <Compound>
Cc1c(O)c(OC2OC(CO)C(O)C(O)C2O)cc2c1CC[C@@H]1C2(C)C(=O)C[C@]2(C)[C@@H]([C@@](C)(O)C(O)CCC(C)(C)O)[C@H](O)C[C@@]12C (stereo not given in full)

>  <Assay Target>
HT29 colon

>  <Class Name>
1 (yes)

$$$$
>  <Compound>
c1ccc(COc2ccc(Nc3ncnc4ccc(-c5ccco5)cc34)cc2)cc1

>  <Assay Target>
HT29 colon

>  <Class Name>
0 (no)

$$$$
>  <Compound>
O=C(Nc1ccc(Cl)cc1)C(=O)C1=C(O)c2ccccc2OC1

>  <Assay Target>
HT29 colon

>  <Class Name>
1 (yes)

$$$$

Determine whether measured TGI meets or exceeds 30 µM for COC(=O)C1(C)CCc2c(ccc3ccccc23)C1=O (stereo not given)
1 (yes)

Determine whether measured TGI meets or exceeds 30 µM for CCOc1ccc(NC(=O)/C(=C/c2ccccc2)C(C)=O)cc1
1 (yes)

Determine whether measured TGI meets or exceeds 30 µM for C[CH2][Sn]([CH2]C)([O]C(=O)c1cc(OC)c(OC)c(OC)c1)[O][Sn]([CH2]C)([CH2]C)[O]C(=O)c1cc(OC)c(OC)c(OC)c1
1 (yes)

Determine whether measured TGI meets or exceeds 30 µM for Cc1cc(N(CCC#N)CCC#N)ccc1N=Nc1ccc([N+](=O)[O-])cc1
1 (yes)

Determine whether measured TGI meets or exceeds 30 µM for O=C(O)Cc1ccccc1
1 (yes)

Determine whether measured TGI meets or exceeds 30 µM for CC/C(=C(/CC)c1ccc(OP(=O)([O-])[O-])cc1)c1ccc(OP(=O)([O-])[O-])cc1.N.N.N.N.[Pt+4].[Pt+4]
1 (yes)

Determine whether measured TGI meets or exceeds 30 µM for O=C1/C(=C\c2ccccc2)CN(C(=O)c2ccccc2F)C/C1=C\c1ccccc1
0 (no)

Determine whether measured TGI meets or exceeds 30 µM for C#CCSc1nnnn1-c1ccc(Br)c(C)c1
1 (yes)

Determine whether measured TGI meets or exceeds 30 µM for Cc1c(/C=N\NC(=S)N(C)CCN(C)C(=S)N/N=C\c2c(C)n(C)n(-c3ccccc3)c2=O)c(=O)n(-c2ccccc2)n1C
1 (yes)

Determine whether measured TGI meets or exceeds 30 µM for COC(=O)[C@@H](COC(=O)/C=C/c1ccc(OC(C)=O)c(OC(C)=O)c1)NC(=O)/C=C/c1ccc(OC(C)=O)c(OC(C)=O)c1
1 (yes)

Determine whether measured TGI meets or exceeds 30 µM for COc1cc2c(c(Br)c1N)-c1cc(Br)c(N)cc1C2=O
1 (yes)

Determine whether measured TGI meets or exceeds 30 µM for COc1cc(-c2[nH]ncc2CCCC(=O)Nc2ccccc2[N+](=O)[O-])ccc1O
1 (yes)

Determine whether measured TGI meets or exceeds 30 µM for O=C(c1no[n+]([O-])c1C(=O)c1csc2ccccc12)c1csc2ccccc12
0 (no)

Determine whether measured TGI meets or exceeds 30 µM for O=C1C(c2c(O)n(-c3ccccc3)c3ccccc23)=Nc2ccccc21
1 (yes)

Determine whether measured TGI meets or exceeds 30 µM for Nc1nc(Cl)cc(NCC2(CO)CC(O)C2)n1 (stereo not given)
1 (yes)
